Reference source: paper PMC11593002

For each entry below, report its fold decrease in IC50 value.
# Test system: MDA-MB-231
# experiment-description: MTT-dye reduction antiproliferative assay, MDA-MB-231
# Type: cell-based
# experimental-context: MDA-MB-231; drug + Iscador Qu 40 µg/mL vs drug alone
Numbers only, in fold.

# count of solved cases: 2
Record O=c1[nH]cc(F)c(=O)[nH]1 [5-Fluorouracyl, 5-Fluorouracil] : what is its fold decrease in IC50 with MDA-MB-231?
1.2

Can you handle O=C1[O][Pt]2([NH][C@@H]3CCCC[C@H]3[NH]2)[O]C1=O [Oxaliplatin] next?
1.9

// next item, fold decrease in IC50 requested
Record COc1cccc2c1C(=O)c1c(O)c3c(c(O)c1C2=O)C[C@@](O)(C(=O)CO)C[C@@H]3O[C@H]1C[C@H](N)[C@@H](O)[C@H](C)O1 [Epirubicin] : what is its fold decrease in IC50 with MDA-MB-231?
2
